# credit: patent US20240174690A1

# Test system: NCI-H2122 cells
# experiment_notes: NCI-H2122 CTG proliferation assay (120 h) (NSCLC, G12C)
# Format: cell-based
# condition_description: Homo sapiens
pIC50: −log10 of the molar value.
reported_endpoint: pIC50

# count of solved cases: 8
{"molecule": "C[C@H](Oc1cc(N2CCNC(C)(C)C2)nc(-c2noc3c2CCC[C@@]32CCCc3sc(N)c(C#N)c32)n1)[C@@H]1CCCN1C [II-32]", "pIC50": 5.48}
{"molecule": "Cc1nccn1-c1cc(O[C@@H](C)[C@@H]2CCCN2C)nc(-c2noc3c2CCC[C@@]32CCCc3sc(N)c(C#N)c32)n1 [II-79]", "pIC50": 5.90}
{"molecule": "CNC(=O)c1ccn(-c2cc(O[C@@H](C)[C@@H]3CCCN3C)nc(-c3noc4c3CCC[C@@]43CCCc4sc(N)c(C#N)c43)n2)n1 [II-20]", "pIC50": 5.69}
{"molecule": "C[C@H](Oc1cc(N2CC[C@H](N(C)C)C2)nc(-c2noc3c2CCC[C@@]32CCCc3sc(N)c(C#N)c32)n1)[C@@H]1C[C@@H](F)CN1C [II-15]", "pIC50": 5.62}
{"molecule": "C[C@H](Oc1cc(N2CC[C@@H](O)C2)nc(-c2noc3c2CCC[C@@]32CCCc3sc(N)c(C#N)c32)n1)[C@@H]1CCCN1C [II-66]", "pIC50": 5.30}
{"molecule": "C[C@H](Oc1cc(N2CCN(CCO)CC2)nc(-c2noc3c2CCC[C@@]32CCCc3sc(N)c(C#N)c32)n1)[C@@H]1CCCN1C [II-8]", "pIC50": 6.03}
{"molecule": "C[C@H](Oc1cc(N2CCN(C)C3(CCOC3)C2)nc(-c2noc3c2CCC[C@@]32CCCc3sc(N)c(C#N)c32)n1)[C@@H]1C[C@@H](F)CN1C (stereo partly shown) [II-151]", "pIC50": 5.45}
{"molecule": "C[C@H](Oc1cc(-n2ccc(C(=O)O)n2)nc(-c2noc3c2CCC[C@@]32CCCc3sc(N)c(C#N)c32)n1)[C@@H]1CCCN1C [II-24]", "pIC50": 5.27}

A. C[C@H](Oc1cc([C@H]2CCOC2)nc(-c2noc3c2CCC[C@@]32CCCc3sc(N)c(C#N)c32)n1)[C@@H]1CCCN1C [II-88]
B. C[C@H](Oc1cc(N2CC(N(C)C)C2)nc(-c2noc3c2CCC[C@@]32CCCc3sc(N)c(C#N)c32)n1)[C@@H]1CCCN1C [II-7]
C. C[C@H](Oc1cc(-n2cccc3cnnc2-3)nc(-c2noc3c2CCC[C@@]32CCCc3sc(N)c(C#N)c32)n1)[C@@H]1CCCN1C [II-92]
D. C[C@H](Oc1cc(-n2ccc(Br)n2)nc(-c2noc3c2CCC[C@@]32CCCc3sc(N)c(C#N)c32)n1)[C@@H]1CCCN1C [II-110]
Sort the molecules on pIC50; start with the lowest figure. Note for the reader: the ranking is given by listing the labels in the order requested.
B, C, D, A
(B: 5.46, C: 5.74, D: 6.02, A: 6.36)

---

# Tested on: KRAS G12V-dependent Ba/F3 cells
# experiment_notes: Ba/F3 proliferation assay, KRAS G12V;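 also: proliferation IC50 in KRAS G12V-dependent Ba/F3 cells read by AlamarBlue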
# Assay type: cell-based
# condition_description: Mus musculus, BaF3, 72 h, AlamarBlue
pIC50: −log10 of the molar value.
reported_endpoint: pIC50

{"smiles": "C[C@H](Oc1cc(-n2cccc3cnnc2-3)nc(-c2noc3c2CCC[C@@]32CCCc3sc(N)c(C#N)c32)n1)[C@@H]1CCCN1C", "pIC50": 7.57}

I. CO[C@H]1CCN(C)[C@@H]1[C@H](C)Oc1cc(N2CCN(C)C3(CC3)C2)nc(-c2noc3c2CCC[C@@]32CCCc3sc(N)c(C#N)c32)n1
II. C[C@H](Oc1cc(N2C[C@H](C)N(C)[C@@H](C)C2)nc(-c2noc3c2CCC[C@@]32CCCc3sc(N)c(C#N)c32)n1)[C@@H]1CCCN1C
III. Cc1nccn1-c1cc(O[C@@H](C)[C@@H]2CCCN2C)nc(-c2noc3c2CCC[C@@]32CCCc3sc(N)c(C#N)c32)n1
Arrange the 3 compounds by rising pIC50, starting with the smallest. Your answer should be the labels, listed in the requested order.
II, I, III

---

# Test system: KRAS G12C-dependent Ba/F3 cells
# experiment_notes: Ba/F3 proliferation assay, KRAS G12C
# Format: cell-based
# condition_description: Mus musculus, BaF3, 72 h, AlamarBlue
# Protocol: Plasmids containing KRASG12 mutants (i.e. […], G12C, G12V) are obtained from GeneScript. To generate KRASG12-dependent Ba/F3 models, Ba/F3 cells are transduced with retroviruses containing vectors that harbor KRASG12 isoforms. […] Compounds are added using an Access Labcyte Workstation with a Labcyte Echo 550 or 555 accoustic dispenser. […] AlamarBlue™ (ThermoFisher), a viability stain, is added and fluorescence measured in the PerkinElmer Envision HTS Multilabel Reader. […]
reported_endpoint: IC50 (µM)

{"compound": "C[C@H](Oc1cc(N2CCN(C)C3(CCC3)C2)nc(-c2onc3c2CCC[C@@]32CCCc3sc(N)c(C#N)c32)n1)[C@@H]1CCCN1C", "unit_of_measure": "µM", "measured_value": 0.509}

1. C[C@H](Oc1cc(N2CC(N(C)C)C2)nc(-c2noc3c2CCC[C@@]32CCCc3sc(N)c(C#N)c32)n1)[C@@H]1CCCN1C
2. CO[C@@H]1C[C@@H]([C@H](C)Oc2cc(N3CCN(C)C4(COC4)C3)nc(-c3noc4c3CCC[C@@]43CCCc4sc(N)c(C#N)c43)n2)N(C)C1
3. C[C@H](Oc1cc(C2COCCO2)nc(-c2noc3c2CCC[C@@]32CCCc3sc(N)c(C#N)c32)n1)[C@@H]1CCCN1C (stereo partly drawn)
4. C[C@H](Oc1cc(-n2nccc2-c2ccncc2)nc(-c2noc3c2CCC[C@@]32CCCc3sc(N)c(C#N)c32)n1)[C@@H]1CCCN1C
5. CO[C@H]1CCN(C)[C@@H]1[C@H](C)Oc1cc(-n2ccc(C(=O)N[C@H]3CCOC3)n2)nc(-c2onc3c2CCC[C@@]32CCCc3sc(N)c(C#N)c32)n1
Write the entries in order, lowest recorded IC50 first. Please list the labels according to the requested order.
5, 4, 3, 1, 2

---

# experiment_notes: Solubility measurement (DMSO solution method), McIlvaine buffer pH 4.5 or 6.8
# Format: physicochemical
# condition_description: aqueous buffer, kinetic from dmso stock; McIlvaine buffer pH 6.8; DMSO stock diluted to 250 μM; 24 h shaking at ambient temperature; read-out: solubility pH 6.8
reported_endpoint: solubility at 24 h (µg/mL)

{"smiles": "C[C@H](Oc1cc(-n2ccc(C(=O)N[C@@H]3CCOC3)n2)nc(-c2noc3c2CCC[C@@]32CCCc3sc(N)c(C#N)c32)n1)[C@@H]1CCCN1C", "unit_of_measure": "µg/mL", "solubility at 24 h": 59}
{"smiles": "C[C@H](Oc1cc(-c2cncnc2)nc(-c2noc3c2CCC[C@@]32CCCc3sc(N)c(C#N)c32)n1)[C@@H]1CCCN1C", "unit_of_measure": "µg/mL", "solubility at 24 h": 72}
{"smiles": "C[C@H](Oc1cc(-c2cnn(C)n2)nc(-c2noc3c2CCC[C@@]32CCCc3sc(N)c(C#N)c32)n1)[C@@H]1CCCN1C", "unit_of_measure": "µg/mL", "solubility at 24 h": 60}
{"smiles": "C[C@H](Oc1cc(N2CC3CCC(C2)N3)nc(-c2noc3c2CCC[C@@]32CCCc3sc(N)c(C#N)c32)n1)[C@@H]1CCCN1C", "unit_of_measure": "µg/mL", "solubility at 24 h": 114}

A. C[C@H](Oc1cc(-n2ccc(C(N)=O)n2)nc(-c2noc3c2CCC[C@@]32CCCc3sc(N)c(C#N)c32)n1)[C@@H]1CCCN1C
B. Cc1nccn1-c1cc(O[C@@H](C)[C@@H]2CCCN2C)nc(-c2noc3c2CCC[C@@]32CCCc3sc(N)c(C#N)c32)n1
C. C[C@H](Oc1cc(-c2ccn([C@H]3CCCOC3)n2)nc(-c2noc3c2CCC[C@@]32CCCc3sc(N)c(C#N)c32)n1)[C@@H]1CCCN1C
Form: Sort by [solubility at 24 h] Order [ ascending ] As an answer, provide the labels arranged in the order called for.
C, A, B
(C: 9 µg/mL, A: 34 µg/mL, B: 102 µg/mL)

---

# Test system: LOVO cells
# experiment_notes: LOVO CTG proliferation assay (120 h) (CRC, G13D)
# Assay type: cell-based
# condition_description: Homo sapiens, CTG 120 h
reported_endpoint: IC50 (nM)

{"smiles": "Cc1ccc(-c2cc(O[C@@H](C)[C@@H]3CCCN3C)nc(-c3onc4c3CCC[C@@]43CCCc4sc(N)c(C#N)c43)n2)cn1", "study_target": "LOVO cells", "reported_endpoint": "IC50", "unit_of_measure": "nM", "measured_value": 390}

1. COC(=O)c1ccc(-c2cc(O[C@@H](C)[C@@H]3CCCN3C)nc(-c3noc4c3CCC[C@@]43CCCc4sc(N)c(C#N)c43)n2)o1
2. C[C@H](Oc1cc(N2CCNC3(CC3)C2)nc(-c2noc3c2CCC[C@@]32CCCc3sc(N)c(C#N)c32)n1)[C@@H]1CCCN1C
Looking only at measured IC50, which entry is lower, 1 or 2 ? Field: selected label. Fill in the label of the entry you choose.
1
(1: 142 nM, 2: 531 nM)

P. C[C@H](Oc1cc(-n2cc(-c3cccnc3)nn2)nc(-c2noc3c2CCC[C@@]32CCCc3sc(N)c(C#N)c32)n1)[C@@H]1CCCN1C
Q. CO[C@@H]1C[C@@H]([C@H](C)Oc2cc(-c3ccn(C4COC4)n3)nc(-c3noc4c3CCC[C@@]43CCCc4sc(N)c(C#N)c43)n2)N(C)C1
Hi! Which is lower in terms of IC50, the first one P or the second one Q ? Response format: the label of the selected entry.
P
